Documented activity at 5 µM across a set of molecules
System: CTL2-GFP (C. trachomatis L2/434/Bu, GFP-expressing)
Construct: L2/434/Bu, GFP-expressing
Assay: microbe, parasite or virus in culture
Parameters: Intracellular C. trachomatis growth in HeLa cells, bulk GFP fluorescence relative to DMSO
Conditions: Chlamydia trachomatis, HeLa, 28.5 h; bulk GFP, mean of 2; read-out: % of control remaining
READOUT KIND: activity at 5 µM (%)

MOLECULE | VALUE REPORTED
Cc1ccc(Cn2c(=N)n(CC(=O)c3cc(C(C)(C)C)c(O)c(C(C)(C)C)c3)c3ccccc32)cc1 [CBK262458B] | 56.5
O=C(O)/C(=N\c1cccc2ccccc12)c1ccccc1 [CBK262224] | 66.5
CN1CCN(c2cc3c(cc2F)c(=O)c(C(=O)O)cn3-c2ccc(F)cc2)CC1 [CBK287138] | 5.16
CCn1c2c(c3cc(S(=O)(=O)c4ccc(C(F)(F)F)cc4)ccc31)CCNCC2 [CBK018453C] | 54.5
Cc1ccc(C(=O)NC2CCCC2)cc1[N+](=O)[O-] [CBK001993] | 123

---

Tested on: CTL2-GFP (C. trachomatis L2/434/Bu, GFP-expressing)
Construct: L2/434/Bu, GFP-expressing
Test: microbe, parasite or virus in culture
Set-up: Intracellular C. trachomatis growth in HeLa cells, bulk GFP fluorescence relative to DMSO
Conditions: Chlamydia trachomatis, HeLa, 28.5 h; bulk GFP, mean of 2; read-out: % of control remaining
# activity at 5 µM per entry
READOUT KIND: activity at 5 µM (%)

COMPOUND | READOUT KIND | UNIT INFO | VALUE REPORTED
O=C(Nc1ccc(OC(F)(F)F)cc1)Nc1cc(-c2cccs2)n[nH]1 [CBK020563] | activity at 5 µM | % | 13.4
Cc1cccc(N(C)S(=O)(=O)c2ccc(N3CCCNCC3)c3ccccc23)c1C [CBK004430C] | activity at 5 µM | % | 95.8
CN(C)[C@H]1CCC[C@@H]1C(=O)Nc1ccc(Cl)c(Cl)c1 [CBK003406] | activity at 5 µM | % | 67.2
OC(CN1CCOCC1)Cn1c(-c2ccccc2)c(-c2ccccc2)c2ccc3ccccc3c21 (centres unmarked) [CBK263996G] | activity at 5 µM | % | 96.6
COc1cc(NS(=O)(=O)c2ccc(Nc3nc(-c4sc(N)nc4C)cs3)cc2)nc(OC)n1 [CBK262796] | activity at 5 µM | % | 58.4
COc1ccc([C@H]2CN(Cc3ccccc3)[C@@H]3CCN(C(=O)Cc4ccsc4)C[C@H]23)cc1 [CBK285551] | activity at 5 µM | % | 107
O=C(N/N=C\c1ccc([N+](=O)[O-])o1)c1nc(-c2ccccc2)cc(-c2ccccc2)n1 [CBK261958] | activity at 5 µM | % | 1.53
CCOc1ccc(OCC)c2c1n(C)c(SC)[n+]2C [CBK005720G] | activity at 5 µM | % | 64.8

---

Experiment: in vitro
Conditions: human, hela cells, % viability

SAMPLE SMILES | viability at 28.5 h, 10 µM / %
CC1=CC(=O)Nc2ccccc2S1 | 118
Cn1cccc1C(=O)N1CCC(Cc2ccccc2)CC1 | 102
c1cnc2[nH]c(C3CCOCC3)c(CN3CCSCC3)c2c1 | 89.5
Cc1cc(/C=N/NC(=O)c2ccc(CN3CCOCC3)cc2)c(C)n1-c1ccccc1 | 100
CCN(CC)C(=O)CN(CCc1ccc(OC)c(OC)c1)C(=O)NCCc1c[nH]c2ccccc12 | 91.1
CCn1c(C)nc2cc(NC(=O)Cn3cc(C(=O)NC4CCCCC4)ccc3=O)ccc21 | 92.9
O=C(CN(c1ccccc1)S(=O)(=O)c1ccccc1[N+](=O)[O-])NC1CCCCC1 | 89.3
COc1ccccc1CNC(=O)c1ccc2nc(C)c(N(C)C(=O)c3cccs3)n2c1 | 86.9
CC(C)[C@H](CO)Nc1nc(-c2ccc(N3CCOCC3)cc2)cn2ccnc12 | 108

---

Assay: in vitro
Details: human, hela cells, % viability

MOLECULE | UNIT INFO | viability at 28.5 h, 10 µM
CSCCCNC(=O)N1CCCC(C(=O)O)C1 (stereo not shown) | % | 92.1
Cc1ccc(N(Cc2ccccc2OC(=O)c2cccnc2)C2=NS(=O)(=O)c3ccccc32)cc1 | % | 88.4
CNCC(=O)N1CCN(C(=O)c2ccc(Cl)cc2Cl)CC1 | % | 99.9
CCCCc1ccc(NC(=S)NN2CCN(C)CC2)cc1 | % | 97.1
O=C(O)c1cccc(CSc2nnc(Cc3ccccc3)o2)c1 | % | 92
Cc1noc([C@@H]2C[C@H](NC(=O)c3ccc(C#N)cc3)CN2C)n1 | % | 97.6
CN1CCN(c2cccc(-c3ccsc3)n2)CC1 | % | 90.2
CN(C(=O)NC1CCCc2c1cnn2CCO)c1ccccc1F (stereo not shown) | % | 109
COc1ccc2cc(CNC(Cc3ccccc3)c3ccccc3)c(Cl)nc2c1 (stereo not shown) | % | 93.3
O=C(Nc1ccc(Cl)c(Cl)c1)N1CCN(c2n[nH]c(=O)[nH]c2=O)CC1 | % | 89.4
O=C(CSc1n[nH]c(-c2ccccc2Cl)n1)Nc1ccccc1F | % | 82.9
Cc1cc(C)c(OCC(=O)Nc2cccc(-c3nc4cc(C(C)C)ccc4o3)c2)c([N+](=O)[O-])c1 | % | 88.6
COc1ccc(CCN2C(=O)c3[nH]nc(-c4cc(C)c(C)cc4O)c3C2c2ccccc2)cc1 (stereo not shown) | % | 106
COc1ccc(-c2noc([C@@H]3Cc4[nH]cnc4CN3C(=O)Nc3ccc(C)cc3)n2)cc1 | % | 92.9
Cc1ccc2[nH]c(CN3CCC(O)C3)cc(=O)c2c1 (stereo not shown) | % | 91.5
O=c1cc(-c2ccc(Br)cc2)nc2[nH]ccn12 | % | 81
O=C(Nc1ccc(Cc2ccncc2)cc1)c1ccc(-c2cc3ccccc3oc2=O)cc1 | % | 121
Cc1ccc(-c2ccccc2)n1-c1ccc(O)c(C(=O)O)c1 | % | 103
N=C1NC(=O)/C(=C/c2ccc(O)c(Cl)c2)S1 | % | 109
CCNC(=O)C1CCN(Cc2c[nH]nc2-c2ccc(F)cc2)C1 (stereo not shown) | % | 90
O=C(O)COc1ccc(/C=N/n2cnnc2)cc1Cl | % | 99.3
N#Cc1ccccc1OCCO | % | 97.9
CC(=O)Nc1ccc(S(=O)(=O)N2CCN(C(=O)COc3ccc(Br)cc3)CC2)cc1 | % | 94.1
Cc1ccc(S(=O)(=O)Nc2ccccc2CNc2ccccn2)cc1 | % | 91.9
O=C(c1ccoc1)N1CCN(S(=O)(=O)c2ccc3c(c2)Cc2cc(S(=O)(=O)N4CCN(C(=O)c5ccco5)CC4)ccc2-3)CC1 | % | 113
CCOC(=O)C(=O)N(C)c1c(CC)nc2c(OCc3ccccc3)cccn12 | % | 86.8
Cc1c(S(=O)(=O)Nc2nnc(C(F)(F)F)s2)sc2ccc(Cl)cc12 | % | 81.9
COc1cc(C(=O)NC/C=N/O)cc(OC)c1OC | % | 90
Nc1nonc1-n1nnc(C(=O)N/N=C/c2ccc([N+](=O)[O-])cc2)c1-c1ccccc1 | % | 86.4
CCCCN1CCC2CN(CCCC(c3ccc(F)cc3)c3ccc(F)cc3)CCN2C1=O (stereo not shown) [CBK024880C] | % | 99.5
COc1cccc(-c2noc(Cn3cnc4sccc4c3=O)n2)c1 | % | 85.3
COc1ccc(N2C(=O)CC(Nc3cc(C(=O)O)ccc3C)C2=O)c(OC)c1 (stereo not shown) | % | 114
COc1cccc(CN2CCCC(NC(=O)c3cnn(C(C)C)c3)C2)c1 (stereo not shown) | % | 91.3
O=C(c1nccs1)C1CCN(C(=O)Cc2ccc(Cl)cc2)CC1 | % | 84.1
O=C1Nc2ccccc2C12NN=C(c1ccccc1)S2 (stereo not shown) | % | 100
Cc1c(S(=O)(=O)Nc2cccc(C(=O)OCC3CCCN(C)C3)c2)sc2ccc(Cl)cc12 (stereo not shown) [CBK167735G] | % | 109
O=C(O)COc1ccc(NC(=O)c2ccc3c(c2)C(=O)N(C2CCCCC2)C3=O)cc1 | % | 92.1

---

Here the recorded viability at 28.5 h, 10 µM is given for each entry.
Experiment: in vitro
Settings: human, hela cells, % viability

MOLECULE | viability at 28.5 h, 10 µM, %
CC1=NN(c2ccccc2)C(=O)/C1=C1/C(=O)Nc2c(C)cc(Br)cc21 [CBK263950] | 92
COc1ccccc1-c1ccc(C(=O)N(C)CCN(C)C)c(NCC2CC2)n1 [CBK106269] | 96.3
CC(C)COc1ccc(C(CC(=O)O)C(=O)O)cc1 (centres unmarked) [CBK286759] | 103
c1csc(CN2CCNCC2)c1 [CBK027324] | 105
Cn1cc(C(c2ccc(OCC(=O)O)cc2)c2cn(C)c3ccccc23)c2ccccc21 [CBK266403] | 94.5
